# MEASURED ON: T1, human MSLN-FL-his protein (human, UniProt Q13421 296-580)
# T1 construct: made in HEK293E cells, purified on nickel column; also called hMSLN-FL-his; human MSLN full-length protein; not shown: His tag
# PROCEDURE DETAILS: competitive ELISA; row F1.35.24; further: test concentration or dose not given here

- BINDER: "S009-F2.47.1 (antibody, human IgG1, kappa, V domains shown, human-murine chimeric antibody, human IgG1/kappa constant regions) VH: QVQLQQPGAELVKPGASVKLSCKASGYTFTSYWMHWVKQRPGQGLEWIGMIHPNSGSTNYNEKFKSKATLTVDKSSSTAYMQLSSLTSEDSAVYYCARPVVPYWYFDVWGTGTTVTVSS VL: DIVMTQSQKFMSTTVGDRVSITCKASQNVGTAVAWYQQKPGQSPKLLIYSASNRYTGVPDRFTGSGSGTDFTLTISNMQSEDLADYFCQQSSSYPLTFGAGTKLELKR"
  VALUE UNITS: "%"
  competition rate: -12
- BINDER: "Tab107 (YP3, hIgG1) (antibody, V domains shown, Control antibody; VH and VL recombined into human IgG1 CH and CL expression vectors; also called YP3 human IgG1 antibody) VH: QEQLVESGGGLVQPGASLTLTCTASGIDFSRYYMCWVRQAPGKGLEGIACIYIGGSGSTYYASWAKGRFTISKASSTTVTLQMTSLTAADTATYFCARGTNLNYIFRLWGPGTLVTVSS VL: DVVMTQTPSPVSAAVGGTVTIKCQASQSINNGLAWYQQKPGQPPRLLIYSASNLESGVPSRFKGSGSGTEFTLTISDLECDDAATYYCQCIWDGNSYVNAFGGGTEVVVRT"
  VALUE UNITS: "%"
  competition rate: 8
- BINDER: "S009-F2.13.3 (antibody, human IgG1, kappa, V domains shown, human-murine chimeric antibody, human IgG1/kappa constant regions) VH: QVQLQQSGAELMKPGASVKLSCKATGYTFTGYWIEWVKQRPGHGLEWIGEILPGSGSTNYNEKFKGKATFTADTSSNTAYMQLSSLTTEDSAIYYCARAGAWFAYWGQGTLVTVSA VL: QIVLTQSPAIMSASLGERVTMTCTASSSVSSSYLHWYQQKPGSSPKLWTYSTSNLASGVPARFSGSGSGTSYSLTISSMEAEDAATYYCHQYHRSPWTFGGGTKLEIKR"
  VALUE UNITS: "%"
  competition rate: 7
